Test system: MCF-7 (breast cancer)
Test: MTT cytotoxicity assay, MCF-7 cells
Assay type: cell-based, human
Conditions: Homo sapiens, MCF7, 72 h, MCF-7, c 64.00 μM, three replicates; read-out: cell inhibition
Description: The cytotoxicity of all compounds against three human tumor cell lines, SF-268 (CNS cancer), MCF-7 (breast cancer), and HepG2 (hepatoma cancer), and normal cell line LX-2 was tested using the MTT assay. […] All cells were seeded into 96-well plates at 5 × 10^4 cells/ml and incubated at 37°C under a 5% CO2 atmosphere for 24 h. Then, the tested compounds were added. […] Optical density (OD) was recorded at 490 nm on a microplate reader to calculate the IC50 values.
Each entry below carries its recorded inhibition at 64 µM.
Numbers only here, please. The scale is %.

CC(C)[C@@H](C)/C=C/[C@@H](C)C1CCC2C3=CC(=O)OC4=CC(=O)CC[C@]4(C)C3CC[C@@]21C (stereo partly drawn) : 76.1
CCCC(O)C1=C(C)C(=O)C(C)C1 (stereo not drawn) : 62.7
CC(C)[C@@H](C)C=C[C@@H](C)[C@H]1CC[C@@]2(O)C3=CC(=O)C4=CC(=O)CC[C@]4(C)[C@H]3CC[C@]12C : 97.3
C/C(=C\C=C\[C@]1(C)OC(=O)[C@@H](C)[C@@H]1O)[C@H](C)O : 53.1

Query string: So what does the record say about inhibition at 64 µM for CC(C)[C@@H](C)/C=C/[C@@H](C)[C@H]1CCC(=O)[C@]23CC(=O)C4=CC(=O)CC[C@]4(C)[C@H]2CC[C@]13C ?
Result string: 97.5

Query string: Try COc1cccc2c1C(=O)c1c(O)c3c(c(O)c1C2=O)C[C@@](O)(C(=O)CO)C[C@@H]3O[C@H]1C[C@H](N)[C@H](O)[C@H](C)O1 [Adriamycin, reference compound] next.
Result string: 97.1

Query string: Try CC(=O)OC(C)C(C)=CC=CC1(C)OC(=O)C(C)C1O (stereo not drawn) next.
Result string: 78.1

Query string: Try CCCC(O)C1=C(C)C(=O)CC1C (stereo not drawn) next.
Result string: 50.6

Query string: Try CC1(O)CC2OC23C(C)(C)C(Cl)CCC3(C)C1C(=O)O (stereo not drawn) next.
Result string: 59.3

====

test system: normal cell line LX-2; assay: MTT cytotoxicity assay, normal cell line LX-2; assay type: cell-based; settings: 72 h, LX-2, c 2.00 μM, three replicates
Think of 9% as a floor: if inhibition at 2 µM stands on it or above, it is True; beneath it, False.

CCCC(O)C1=C(C)C(=O)CC1C (stereo not drawn) : True

Query string: Decide: is the reported value of inhibition at 2 µM for CCCC(O)C1=C(C)C(=O)C(C)C1 (stereo not drawn) equal to or greater than 9%?
Result string: False

Query string: Try CC1(O)CC2OC23C(C)(C)C(Cl)CCC3(C)C1C(=O)O (stereo not drawn) next.
Result string: True

Query string: Try C/C(=C\C=C\[C@]1(C)OC(=O)[C@@H](C)[C@@H]1O)[C@H](C)O next.
Result string: False

Query string: Try CC(C)[C@@H](C)C=C[C@@H](C)[C@H]1CC[C@@]2(O)C3=CC(=O)C4=CC(=O)CC[C@]4(C)[C@H]3CC[C@]12C next.
Result string: True

Query string: Try COc1cccc2c1C(=O)c1c(O)c3c(c(O)c1C2=O)C[C@@](O)(C(=O)CO)C[C@@H]3O[C@H]1C[C@H](N)[C@H](O)[C@H](C)O1 [Adriamycin, reference compound] next.
Result string: True
